# TEST DESCRIPTION: NCI Yeast Anticancer Drug Screen. Data for the cln2 rad14 strain (AID 165);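 also: 0% = growth equal to vehicle treated cultures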
# APPLIED CONDITIONS: S. cerevisiae cln2 rad14 strain, at 50.0 µM
# Description: Growth inhibition of yeast strains with defined genetic alterations is measured as a screen for potential anti-cancer activity. Selected strains with alterations in DNA damage repair or cell cycle control were exposed to compounds and growth inhibition was measured relative to vehicle treated controls. The strain used in this assay is cln2 rad14
Compounds without any hit were thinned out: in the full panel of roughly 79,000, 15% have a hit. Activity calls are given as the source filed them. Rule as the data show it: active = growth inhibition above about 70%; inactive = the rest.
Write down one outcome, taken from true for active, false for inactive

Fill in: this test's call for CC(C)(c1ccccc1)c1ccc(O)cc1 is ___ true

Fill in: this test's call for COC1=C(N2CC2)C(=O)C(OC)=C(N2CC2)C1=O is ___ true

Fill in: this test's call for O=CNc1ccccc1.[Hg] is ___ true

Fill in: this test's call for CN[C@H]1C[C@@H]2O[C@@](C)([C@H]1OC)n1c3ccccc3c3c4c(c5c6ccccc6n2c5c31)C(=O)NC4 is ___ true

Fill in: this test's call for CCN(CCCl)c1ccc(/C=C/C2=[N+](C)c3ccccc3C2(C)C)c(C)c1 is ___ true

Fill in: this test's call for C=CO/C(C)=C(\[Se]c1ccccc1)C(C)=O is ___ false

* * *

# TEST DESCRIPTION: NCI Yeast Anticancer Drug Screen. Data for the wt2 strain (AID 169);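 also: 0% = growth of vehicle-treated yeast cultures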
# APPLIED CONDITIONS: S. cerevisiae wt2 strain growth inhibition; at 3.7 µM; stronger effect = higher value
Compounds without any hit were thinned out: in the full panel of roughly 79,000, 15% have a hit.
QUANTITY NAME: growth inhibition (%)
Please reply with the bare figure in % and do not write the unit itself.

Give reported growth inhibition value for C[C@]12CCC3[C@@H](CC[C@@H]4c5nonc5CC[C@]34C)C1CCC2=O (stereo partly specified) 2

Give reported growth inhibition value for O=C1NC(=S)NC(=O)C1=Cc1ccc([N+](=O)[O-])o1 -12

Give reported growth inhibition value for COc1ccc(/C=C(/C)[N+](=O)[O-])cc1 -4

Give reported growth inhibition value for CCN(CC)CCBr 6

Give reported growth inhibition value for O=Cc1ccc(C(F)(F)F)cc1.[C-]#[O+].[C-]#[O+].[C-]#[O+].[Cr] 8

Give reported growth inhibition value for CC1CC(Br)C(=O)O1 (stereo unspecified) -40

Give reported growth inhibition value for C/C(CCl)=N/NC1=NC(c2ccccc2Cl)P(=O)(NCCCNP2(=O)SC(N/N=C(/C)CCl)=NC2c2ccccc2Cl)S1 (stereo unspecified) -2

Give reported growth inhibition value for CC1(Cl)CC(C)(/C=C/Cl)C(Cl)CC1Cl (stereo unspecified) 1

Give reported growth inhibition value for CCCN(CCC)c1c([N+](=O)[O-])cc(S(N)(=O)=O)cc1[N+](=O)[O-] -2

Give reported growth inhibition value for Nc1nnc(N)n1-n1c(N)nnc1N -1

Give reported growth inhibition value for COC(=O)c1c(C)ccc2c(O)c3c(cc12)C(=O)c1c2c(cc(O)c1C3=O)C1(C)OC(C)(O2)C(O)C(N(C)C)C1O (stereo unspecified) 4

Give reported growth inhibition value for Cc1ccc2c(c1N)C(=O)c1ccccc1C2=O 1

Give reported growth inhibition value for CCc1cccc(C(C)C)c1NC1=C([n+]2ccc(C)cc2)C(=O)c2ccccc2C1=O -2

Give reported growth inhibition value for CSC(=Nc1ccccc1)N(c1ccccc1)c1nc(=[N+](C)C)ss1 17

Give reported growth inhibition value for O=C(O)CCCOc1cc(Cl)c(Cl)cc1Cl -11

Give reported growth inhibition value for CNCC(O)c1ccc(O)c(O)c1.[Pt].c1ccc([PH+](c2ccccc2)c2ccccc2)cc1.c1ccc([PH+](c2ccccc2)c2ccccc2)cc1 -2

Give reported growth inhibition value for CNC(Cc1ccccc1)c1ccc(OC)c(OC)c1 (stereo unspecified) -14

Give reported growth inhibition value for O=[N+]([O-])c1ccc(C=Cc2ccccc2)cc1.[C-]#[O+].[C-]#[O+].[C-]#[O+].[Cr] -1

Give reported growth inhibition value for O=[N+]([O-])O.[NH-]C1CCCCC1[NH-].[NH-]C1CCCCC1[NH-].[NH-]C1CCCCC1[NH-].[OH-].[OH-].[OH-].[Pt+4].[Pt+4].[Pt+4] (stereo unspecified) -58

Give reported growth inhibition value for CC(C)(C)c1cc([N+](=O)[O-])cc([N+](=O)[O-])c1O -29

Give reported growth inhibition value for CCN(CCCl)CCCCNc1c2ccccc2nc2ccc(OC)cc12 13

The values you see were collected from PubChem BioAssay (NCI).
